TARGET OR SYSTEM: Peroxisome proliferator-activated receptor gamma (Homo sapiens)
EXPERIMENT DESCRIPTION: Antagonist activity at PPARgamma in HEK293 cells assessed as suppression of rosiglitazone induced PPARgamma transactivation at 30 uM by dual-luciferase reporter gene assay relative to control
Assay type: cell-based
Parameters: scale not given: the % may be the effect or the level left
MEASURE NAME: Activity

SMILES STRING: COc1cc(O)c(C(=O)O)c(CC(=O)c2ccc(Cl)cc2)c1
ENDPOINT VALUE: 12%

SMILES STRING: COc1cc(CC(=O)c2ccc(Cl)cc2)c(C(=O)O)c(O)c1CC=C(C)C
ENDPOINT VALUE: 28.1%

SMILES STRING: COc1cc(CS(=O)(=O)c2ccccc2)c(C(=O)O)c(O)c1CC=C(C)C
ENDPOINT VALUE: 1.9%

SMILES STRING: COc1cc(O)c(C(=O)O)c(CC(=O)c2ccc(F)cc2)c1
ENDPOINT VALUE: 6.3%

SMILES STRING: COc1cc(O)c(C(=O)O)c(CC(=O)c2cccs2)c1
ENDPOINT VALUE: 8.7%

SMILES STRING: COc1cc(O)c(C(=O)O)c(CS(=O)(=O)c2ccccc2)c1CC=C(C)C
ENDPOINT VALUE: -1%

SMILES STRING: COc1cc(O)c(C(=O)O)c(CC(=O)c2ccc(Cl)cc2)c1CC=C(C)C
ENDPOINT VALUE: 11.3%

SMILES STRING: COc1cc(O)c(C(=O)O)c(CS(=O)(=O)c2ccccc2)c1
ENDPOINT VALUE: -14%

SMILES STRING: COc1cc(O)c(C(=O)O)c(CC(=O)c2ccc(Cl)cc2Cl)c1
ENDPOINT VALUE: 15.9%

---

System: HepG2
EXPERIMENT DESCRIPTION: Insulin-sensitizing activity in human HepG2 cells assessed as increase in glucose consumption at 10 uM relative to control
Format: functional
Reported Activity values for a set of compounds

COMPOUND: COc1cc(O)c(C(=O)O)c(CC(=O)c2ccc(Cl)cc2)c1
TARGET OR SYSTEM: HepG2
Activity: 16.3%
--
COMPOUND: COc1cc(O)c(C(=O)O)c(CC(=O)c2ccc(Cl)cc2)c1CC=C(C)C
TARGET OR SYSTEM: HepG2
Activity: 27.5%
--
COMPOUND: COc1cc(CC(=O)c2cccs2)c(C(=O)O)c(O)c1CC=C(C)C
TARGET OR SYSTEM: HepG2
Activity: 19.1%
--
COMPOUND: CCc1ccc(CCOc2ccc(CC3SC(=O)NC3=O)cc2)nc1 (stereo not given)
TARGET OR SYSTEM: HepG2
Activity: 43.3%
--
COMPOUND: COc1cc(O)c(C(=O)O)c(CC(=O)c2ccc(F)cc2)c1CC=C(C)C
TARGET OR SYSTEM: HepG2
Activity: 39.7%
--
COMPOUND: COc1cc(CS(=O)(=O)c2ccccc2)c(C(=O)O)c(O)c1CC=C(C)C
TARGET OR SYSTEM: HepG2
Activity: -3.4%
--
COMPOUND: COc1cc(O)c(C(=O)O)c(CS(=O)(=O)c2ccccc2)c1
TARGET OR SYSTEM: HepG2
Activity: -9.4%
--
COMPOUND: COc1cc(CC(=O)c2ccc(Cl)cc2)c(C(=O)O)c(O)c1CC=C(C)C
TARGET OR SYSTEM: HepG2
Activity: 26.2%
--
COMPOUND: COc1cc(O)c(C(=O)O)c(CC(=O)c2cccs2)c1CC=C(C)C
TARGET OR SYSTEM: HepG2
Activity: 18%
--
COMPOUND: COc1cc2c(c(OCC=C(C)C)c1)C(=O)N(Cc1cccc(C(F)(F)F)c1)CC2
TARGET OR SYSTEM: HepG2
Activity: 50.6%

---

TARGET OR SYSTEM: Peroxisome proliferator-activated receptor gamma (Homo sapiens)
Sequence (whole entry): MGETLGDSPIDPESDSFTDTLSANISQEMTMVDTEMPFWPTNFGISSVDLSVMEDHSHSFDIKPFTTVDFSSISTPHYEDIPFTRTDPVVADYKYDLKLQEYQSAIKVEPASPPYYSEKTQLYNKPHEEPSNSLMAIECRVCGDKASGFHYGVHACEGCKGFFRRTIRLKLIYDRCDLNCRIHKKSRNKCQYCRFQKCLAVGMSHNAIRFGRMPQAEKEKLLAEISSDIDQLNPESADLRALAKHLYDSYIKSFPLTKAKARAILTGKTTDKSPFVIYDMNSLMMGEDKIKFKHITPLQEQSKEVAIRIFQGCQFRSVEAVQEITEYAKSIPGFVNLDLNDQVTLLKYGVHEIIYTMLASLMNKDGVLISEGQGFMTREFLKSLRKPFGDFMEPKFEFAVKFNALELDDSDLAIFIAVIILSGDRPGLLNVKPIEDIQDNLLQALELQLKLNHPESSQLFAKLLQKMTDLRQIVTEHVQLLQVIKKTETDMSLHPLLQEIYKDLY
EXPERIMENT DESCRIPTION: Antagonist activity at PPARgamma in HEK293 cells assessed as suppression of rosiglitazone induced PPARgamma transactivation at 30 uM by dual-luciferase reporter gene assay relative to control
Assay type: cell-based
Parameters: scale not given: the % may be the effect or the level left
RECORDED CONDITIONS: filed as antagonist
Each entry belongs to exactly one class, chosen by where its Activity falls: low class (below 70%), middle class (70% to below 80%), high class (80% or more)

SMILES STRING: COc1cc(CC(=O)c2ccc(F)cc2)c(C(=O)O)c(O)c1CC=C(C)C
CAT: high class
--
SMILES STRING: COc1cc2c(c(OCC=C(C)C)c1)C(=O)N(Cc1cccc(C(F)(F)F)c1)CC2
CAT: high class
--
SMILES STRING: COc1cc(O)c(C(=O)O)c(CC(=O)c2ccccc2)c1CC=C(C)C
CAT: middle class
--
SMILES STRING: COc1cc(O)c(C(=O)O)c(CC(=O)c2ccc(F)cc2)c1CC=C(C)C
CAT: middle class
--
SMILES STRING: COc1cc2c(c(OCC=C(C)C)c1)C(=O)N(Cc1ccc(F)c(Cl)c1)CC2
CAT: low class
--
SMILES STRING: COc1cc(O)c(C(=O)O)c(CC(=O)c2ccc(Cl)cc2Cl)c1CC=C(C)C
CAT: low class
--
SMILES STRING: COc1cc(O)c(C(=O)O)c(CC(=O)c2cccs2)c1CC=C(C)C
CAT: high class
--
SMILES STRING: COc1cc(CC(=O)c2cccs2)c(C(=O)O)c(O)c1CC=C(C)C
CAT: high class
--
SMILES STRING: COc1cc(CC(=O)c2ccc(Cl)cc2Cl)c(C(=O)O)c(O)c1CC=C(C)C
CAT: high class
--
SMILES STRING: COc1cc2c(c(OCC=C(C)C)c1)C(=O)N(Cc1cccc(F)c1)CC2
CAT: middle class

---

# key: entry, value: Activity
Test system: HepG2
EXPERIMENT DESCRIPTION: Insulin-sensitizing activity in human HepG2 cells assessed as glucose consumption at 10 uM (Rvb= 2.04 +/- 0.12 mM)
Format: functional
MEASURE NAME: Activity (mM)

COMPOUND: COc1cc2c(c(OCC=C(C)C)c1)C(=O)N(Cc1cccc(C(F)(F)F)c1)CC2
TARGET OR SYSTEM: HepG2
ENDPOINT VALUE: 3.07

COMPOUND: COc1cc(O)c(C(=O)O)c(CC(=O)c2ccc(Cl)cc2Cl)c1
TARGET OR SYSTEM: HepG2
ENDPOINT VALUE: 2.25

COMPOUND: COc1cc2c(c(OCC=C(C)C)c1)C(=O)N(C(C)c1ccccc1)CC2 (configuration not stated)
TARGET OR SYSTEM: HepG2
ENDPOINT VALUE: 2.62

COMPOUND: COc1cc(O)c(C(=O)O)c(CC(=O)c2ccc(Cl)cc2)c1CC=C(C)C
TARGET OR SYSTEM: HepG2
ENDPOINT VALUE: 2.6

COMPOUND: COc1cc(O)c(C(=O)O)c(CC(=O)c2ccc(Cl)cc2)c1
TARGET OR SYSTEM: HepG2
ENDPOINT VALUE: 2.37

COMPOUND: COc1cc(O)c(C(=O)O)c(CC(=O)c2ccc(Cl)cc2Cl)c1CC=C(C)C
TARGET OR SYSTEM: HepG2
ENDPOINT VALUE: 2.52

COMPOUND: COc1cc(CC(=O)c2ccc(F)cc2)c(C(=O)O)c(O)c1CC=C(C)C
TARGET OR SYSTEM: HepG2
ENDPOINT VALUE: 2.97

COMPOUND: COc1cc(O)c(C(=O)O)c(CC(=O)c2ccc(F)cc2)c1
TARGET OR SYSTEM: HepG2
ENDPOINT VALUE: 2.02

COMPOUND: COc1cc(CC(=O)c2ccc(Cl)cc2Cl)c(C(=O)O)c(O)c1CC=C(C)C
TARGET OR SYSTEM: HepG2
ENDPOINT VALUE: 2.69

COMPOUND: COc1cc(CC(=O)c2cccs2)c(C(=O)O)c(O)c1CC=C(C)C
TARGET OR SYSTEM: HepG2
ENDPOINT VALUE: 2.43

COMPOUND: COc1cc(O)c(C(=O)O)c(CC(=O)c2cccs2)c1
TARGET OR SYSTEM: HepG2
ENDPOINT VALUE: 2.24

COMPOUND: COc1cc2c(c(OCC=C(C)C)c1)C(=O)N(C(C)c1cccc(C(F)(F)F)c1)CC2 (configuration not stated)
TARGET OR SYSTEM: HepG2
ENDPOINT VALUE: 2.66

COMPOUND: COc1cc(O)c(C(=O)O)c(CC(=O)c2ccccc2)c1CC=C(C)C
TARGET OR SYSTEM: HepG2
ENDPOINT VALUE: 2.73

COMPOUND: COc1cc(O)c(C(=O)O)c(CC(=O)c2ccc(F)cc2)c1CC=C(C)C
TARGET OR SYSTEM: HepG2
ENDPOINT VALUE: 2.85

COMPOUND: COc1cc(O)c(C(=O)O)c(CC(=O)c2cccs2)c1CC=C(C)C
TARGET OR SYSTEM: HepG2
ENDPOINT VALUE: 2.41

COMPOUND: CCc1ccc(CCOc2ccc(CC3SC(=O)NC3=O)cc2)nc1 (configuration not stated)
TARGET OR SYSTEM: HepG2
ENDPOINT VALUE: 2.92

COMPOUND: COc1cc(O)c(C(=O)O)c(CS(=O)(=O)c2ccccc2)c1CC=C(C)C
TARGET OR SYSTEM: HepG2
ENDPOINT VALUE: 2.14

COMPOUND: COc1cc2c(c(OCC=C(C)C)c1)C(=O)N(Cc1cccc(F)c1)CC2
TARGET OR SYSTEM: HepG2
ENDPOINT VALUE: 2.8

COMPOUND: COc1cc2c(c(OCC=C(C)C)c1)C(=O)N(Cc1ccc(F)c(Cl)c1)CC2
TARGET OR SYSTEM: HepG2
ENDPOINT VALUE: 2.79

COMPOUND: COc1cc(CC(=O)c2ccc(Cl)cc2)c(C(=O)O)c(O)c1CC=C(C)C
TARGET OR SYSTEM: HepG2
ENDPOINT VALUE: 2.59

COMPOUND: COc1cc(CS(=O)(=O)c2ccccc2)c(C(=O)O)c(O)c1CC=C(C)C
TARGET OR SYSTEM: HepG2
ENDPOINT VALUE: 1.97

COMPOUND: COc1cc(O)c(C(=O)O)c(CS(=O)(=O)c2ccccc2)c1
TARGET OR SYSTEM: HepG2
ENDPOINT VALUE: 1.85
